- system: UniProt Q12809
- Sequence (Q12809 whole entry): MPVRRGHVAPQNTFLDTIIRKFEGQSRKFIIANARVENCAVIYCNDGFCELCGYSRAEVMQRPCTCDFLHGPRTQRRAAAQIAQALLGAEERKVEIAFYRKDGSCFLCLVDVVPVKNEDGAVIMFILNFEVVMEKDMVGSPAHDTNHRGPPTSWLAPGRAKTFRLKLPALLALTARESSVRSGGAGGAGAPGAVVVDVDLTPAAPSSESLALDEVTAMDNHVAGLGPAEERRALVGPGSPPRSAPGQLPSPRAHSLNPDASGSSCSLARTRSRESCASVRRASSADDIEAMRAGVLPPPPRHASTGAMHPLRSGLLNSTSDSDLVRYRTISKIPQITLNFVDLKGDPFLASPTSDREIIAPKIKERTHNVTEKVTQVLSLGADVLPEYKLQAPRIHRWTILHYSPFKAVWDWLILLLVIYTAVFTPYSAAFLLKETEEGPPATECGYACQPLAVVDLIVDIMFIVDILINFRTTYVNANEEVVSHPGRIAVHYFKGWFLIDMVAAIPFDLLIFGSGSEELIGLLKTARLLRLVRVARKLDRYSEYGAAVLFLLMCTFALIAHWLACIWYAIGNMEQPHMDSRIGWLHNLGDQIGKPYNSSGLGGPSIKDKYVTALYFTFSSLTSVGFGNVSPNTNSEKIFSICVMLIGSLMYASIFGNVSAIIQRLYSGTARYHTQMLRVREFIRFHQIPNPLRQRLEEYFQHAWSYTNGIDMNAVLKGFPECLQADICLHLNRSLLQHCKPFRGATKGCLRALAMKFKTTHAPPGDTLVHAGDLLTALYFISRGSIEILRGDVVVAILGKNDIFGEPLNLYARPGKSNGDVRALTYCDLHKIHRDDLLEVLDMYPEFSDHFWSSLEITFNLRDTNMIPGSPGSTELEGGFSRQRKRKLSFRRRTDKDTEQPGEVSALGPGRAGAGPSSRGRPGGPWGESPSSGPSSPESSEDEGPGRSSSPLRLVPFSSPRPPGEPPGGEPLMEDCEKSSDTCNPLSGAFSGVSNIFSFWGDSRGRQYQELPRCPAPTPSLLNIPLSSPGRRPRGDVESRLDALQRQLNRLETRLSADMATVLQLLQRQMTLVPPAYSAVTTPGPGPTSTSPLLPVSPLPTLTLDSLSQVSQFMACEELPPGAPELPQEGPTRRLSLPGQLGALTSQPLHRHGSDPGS
outcomeMeasure: pIC50
In simple prose, pIC50 is minus the logarithm base ten of a concentration in moles per litre.

IN: Name the reported pIC50 value associated with the molecule COc1ccc2nccc(C3CN(C4CCN(Cc5ccc(C)c(C)c5)CC4)C(=O)O3)c2c1 (configuration not stated)
OUT: 5.20

IN: Name the reported pIC50 value associated with the molecule COc1ccc2nccc([C@@H]3CN(C4CCN(Cc5cc6ccccc6[nH]5)CC4)C(=O)O3)c2c1
OUT: 5.80

====

- methodNotes: Half life in mouse at 1 mg/kg, iv or 2 mg/kg, po
- Type: ADME, organism-based
- conditionParameters: in vivo
outcomeMeasure: half-life (h)
The answer is to be given in h; state only the numeric part.

IN: Name the reported half-life value associated with the compound COc1ccc2nccc([C@@H]3CN(C4CCN(Cc5cc6ccccc6[nH]5)CC4)C(=O)O3)c2c1
OUT: 1

====

- methodNotes: Clearance in mouse blood at 1 mg/kg, iv or 2 mg/kg, po
- Assay type: ADME, organism-based
outcomeMeasure: clearance (mL/min/kg)
The answer is to be given in mL/min/kg; state only the numeric part.

IN: Name the reported clearance value associated with the compound COc1ccc2nccc([C@@H]3CN(C4CCN(Cc5cc6ccccc6[nH]5)CC4)C(=O)O3)c2c1
OUT: 38

====

For each record, write down the corresponding IC50.
- system: C-C chemokine receptor type 8 (Homo sapiens, UniProt P51685)
- Sequence (P51685 whole entry): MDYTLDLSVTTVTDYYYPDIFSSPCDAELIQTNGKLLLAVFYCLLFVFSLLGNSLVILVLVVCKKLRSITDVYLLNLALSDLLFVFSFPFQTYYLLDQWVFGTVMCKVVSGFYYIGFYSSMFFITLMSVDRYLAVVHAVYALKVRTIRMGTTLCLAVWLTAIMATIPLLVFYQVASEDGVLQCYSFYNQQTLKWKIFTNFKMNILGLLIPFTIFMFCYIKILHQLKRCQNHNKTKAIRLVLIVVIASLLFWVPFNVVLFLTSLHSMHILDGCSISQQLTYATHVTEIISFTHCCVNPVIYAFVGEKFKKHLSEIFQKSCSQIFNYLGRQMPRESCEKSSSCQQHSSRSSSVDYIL
- methodNotes: Antagonist activity at human recombinant CCR8 expressed in RBL cells assessed as inhibition of I-309-induced intracellular calcium mobilization by FLIPR assay
The answer is to be given in µM; state only the numeric part.

IN: Name the reported IC50 value associated with the compound COc1ccc2nccc(C3CN(C4CCN(CC5CCCCC5)CC4)C(=O)O3)c2c1 (centres undefined)
OUT: 7.94

IN: Name the reported IC50 value associated with the compound COc1ccc(CN2CCC(N3CC(c4ccnc5ccc(OC)cc45)OC3=O)CC2)cc1 (centres undefined)
OUT: 1.26

IN: Name the reported IC50 value associated with the compound COc1ccc2nccc(C3CN(C4CCN(Cc5cc6ccccc6n5C)CC4)C(=O)O3)c2c1 (centres undefined)
OUT: 3.16

IN: Name the reported IC50 value associated with the compound COc1ccc2nccc(C3CN(C4CCN(Cc5ccc(C#N)cc5)CC4)C(=O)O3)c2c1 (centres undefined)
OUT: 12.6

IN: Name the reported IC50 value associated with the compound COc1ccc2nccc(C3CN(C4CCN(Cc5cccc(Cl)c5)CC4)C(=O)O3)c2c1 (centres undefined)
OUT: 6.31

IN: Name the reported IC50 value associated with the compound COc1ccc2nccc(C3CN(C4CCN(Cc5ccc(Br)cc5)CC4)C(=O)O3)c2c1 (centres undefined)
OUT: 0.0501

IN: Name the reported IC50 value associated with the compound COc1ccc2nccc(C3CN(C4CCN(Cc5ccc(C)c(C)c5)CC4)C(=O)O3)c2c1 (centres undefined)
OUT: 0.0398

IN: Name the reported IC50 value associated with the compound COc1ccc2nccc(C3CN(C4CCN(Cc5ccc(Cl)c(Cl)c5)CC4)C(=O)O3)c2c1 (centres undefined)
OUT: 0.126

IN: Name the reported IC50 value associated with the compound COc1ccc2nccc(C3CN(C4CCN(Cc5ccc6ccccc6n5)CC4)C(=O)O3)c2c1 (centres undefined)
OUT: 3.16

IN: Name the reported IC50 value associated with the compound COc1ccc2nccc(C3CN(C4CCN(Cc5cc6ccccc6[nH]5)CC4)C(=O)O3)c2n1 (centres undefined)
OUT: 0.0316

IN: Name the reported IC50 value associated with the compound COc1ccc2nccc(C3CN(C4CCN(C(=O)c5ccc(Cl)c(Cl)c5)CC4)C(=O)O3)c2c1 (centres undefined)
OUT: 6.31

IN: Name the reported IC50 value associated with the compound COc1ccc2nccc(C3CN(C4CCN(Cc5cc6ccccc6[nH]5)CC4)C(=O)O3)c2c1 (centres undefined)
OUT: 0.0251
